Please provide measured log10 of IC50 for the entries that follow.
# TARGET OR TEST SYSTEM: FLT3-ITD (Homo sapiens, UniProt P36888, ITD)
# Sequence (P36888 27-993, change not shown): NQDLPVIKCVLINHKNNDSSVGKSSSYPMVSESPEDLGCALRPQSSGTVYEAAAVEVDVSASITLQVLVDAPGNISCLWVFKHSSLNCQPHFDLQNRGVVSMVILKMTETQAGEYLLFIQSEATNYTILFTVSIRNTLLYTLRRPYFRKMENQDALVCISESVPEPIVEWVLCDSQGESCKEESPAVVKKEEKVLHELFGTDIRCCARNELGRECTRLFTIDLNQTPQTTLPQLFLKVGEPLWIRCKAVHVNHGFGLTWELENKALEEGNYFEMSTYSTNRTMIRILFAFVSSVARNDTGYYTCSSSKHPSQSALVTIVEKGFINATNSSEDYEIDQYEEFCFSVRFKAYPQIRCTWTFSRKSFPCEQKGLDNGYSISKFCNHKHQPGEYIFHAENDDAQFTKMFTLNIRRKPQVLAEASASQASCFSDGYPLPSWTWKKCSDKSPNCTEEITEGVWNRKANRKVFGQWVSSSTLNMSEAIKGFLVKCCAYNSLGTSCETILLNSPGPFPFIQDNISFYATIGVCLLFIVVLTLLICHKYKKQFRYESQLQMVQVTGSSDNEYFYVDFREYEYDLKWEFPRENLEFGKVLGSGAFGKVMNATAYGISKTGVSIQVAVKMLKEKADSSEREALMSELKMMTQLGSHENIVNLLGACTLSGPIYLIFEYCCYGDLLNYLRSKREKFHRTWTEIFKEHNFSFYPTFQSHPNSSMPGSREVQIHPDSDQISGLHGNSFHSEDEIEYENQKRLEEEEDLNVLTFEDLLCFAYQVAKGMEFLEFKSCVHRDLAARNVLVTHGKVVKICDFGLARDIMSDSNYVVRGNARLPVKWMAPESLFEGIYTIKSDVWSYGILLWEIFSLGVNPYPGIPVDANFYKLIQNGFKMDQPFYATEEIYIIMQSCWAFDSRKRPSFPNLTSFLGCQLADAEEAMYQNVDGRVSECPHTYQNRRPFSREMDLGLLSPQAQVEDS
# ASSAY NAME: ADP-Glo kinase-inhibition assay
# Format: biochemical
# CONDITION DESCRIPTION: ADP-Glo; ATP 100 μM; FLT3-ITD 10 ng/μL
Scale: log10; quantity: IC50; unit before log: nM

I would be grateful if you could share the reported log10 of IC50 for CCc1nc(C(N)=O)c(Nc2ccc(N3CCC(Nc4ccccc4)CC3)c(OC)c2)nc1NC1CCOC(C(O)CO)C1 (stereo not drawn) [FLIN-4] .
0.03

Give its log10 of IC50 value. Item: CCCNC1CCN(c2ccc(Nc3nc(NC4CCOC(C(O)CO)C4)c(CC)nc3C(N)=O)cc2OC)CC1 (stereo not drawn) [FLIN-5]
1.16

If you can, please state the reported log10 of IC50 value of CCc1nc(C(N)=O)c(Nc2ccc(N3CCC(NC4CCCCC4)CC3)c(OC)c2)nc1NC1CCOC(C(O)CO)C1 (stereo not drawn) [FLIN-3] .
0.45

Could you tell me which log10 of IC50 is on file for CCc1nc(C(N)=O)c(Nc2ccc(N3CCC(NC4CCCC4)CC3)c(OC)c2)nc1NC1CCOC(C(O)CO)C1 (stereo not drawn) [FLIN-2] ?
0.70

Dear colleague, I am looking for the recorded log10 of IC50 of the following compound: CCc1nc(C(N)=O)c(Nc2ccc(N3CCC(NC(CC)CC)CC3)c(OC)c2)nc1NC1CCOC(C(O)CO)C1 (stereo not drawn) [FLIN-6]
0.81

Given CCc1nc(C(N)=O)c(Nc2ccc(N3CCC(NC4CC4)CC3)c(OC)c2)nc1NC1CCOC(C(O)CO)C1 (stereo not drawn) [FLIN-1] , state its recorded log10 of IC50.
1.01

---

MEASURED QUANTITY: IC50

# value lookup — system UniProt:P00519, readout IC50, item CCc1nc(C(N)=O)c(Nc2ccc(N3CCC(Nc4ccccc4)CC3)c(OC)c2)nc1NC1CCOC(C(O)CO)C1 (stereo not shown)
# Sequence (P00519 whole entry): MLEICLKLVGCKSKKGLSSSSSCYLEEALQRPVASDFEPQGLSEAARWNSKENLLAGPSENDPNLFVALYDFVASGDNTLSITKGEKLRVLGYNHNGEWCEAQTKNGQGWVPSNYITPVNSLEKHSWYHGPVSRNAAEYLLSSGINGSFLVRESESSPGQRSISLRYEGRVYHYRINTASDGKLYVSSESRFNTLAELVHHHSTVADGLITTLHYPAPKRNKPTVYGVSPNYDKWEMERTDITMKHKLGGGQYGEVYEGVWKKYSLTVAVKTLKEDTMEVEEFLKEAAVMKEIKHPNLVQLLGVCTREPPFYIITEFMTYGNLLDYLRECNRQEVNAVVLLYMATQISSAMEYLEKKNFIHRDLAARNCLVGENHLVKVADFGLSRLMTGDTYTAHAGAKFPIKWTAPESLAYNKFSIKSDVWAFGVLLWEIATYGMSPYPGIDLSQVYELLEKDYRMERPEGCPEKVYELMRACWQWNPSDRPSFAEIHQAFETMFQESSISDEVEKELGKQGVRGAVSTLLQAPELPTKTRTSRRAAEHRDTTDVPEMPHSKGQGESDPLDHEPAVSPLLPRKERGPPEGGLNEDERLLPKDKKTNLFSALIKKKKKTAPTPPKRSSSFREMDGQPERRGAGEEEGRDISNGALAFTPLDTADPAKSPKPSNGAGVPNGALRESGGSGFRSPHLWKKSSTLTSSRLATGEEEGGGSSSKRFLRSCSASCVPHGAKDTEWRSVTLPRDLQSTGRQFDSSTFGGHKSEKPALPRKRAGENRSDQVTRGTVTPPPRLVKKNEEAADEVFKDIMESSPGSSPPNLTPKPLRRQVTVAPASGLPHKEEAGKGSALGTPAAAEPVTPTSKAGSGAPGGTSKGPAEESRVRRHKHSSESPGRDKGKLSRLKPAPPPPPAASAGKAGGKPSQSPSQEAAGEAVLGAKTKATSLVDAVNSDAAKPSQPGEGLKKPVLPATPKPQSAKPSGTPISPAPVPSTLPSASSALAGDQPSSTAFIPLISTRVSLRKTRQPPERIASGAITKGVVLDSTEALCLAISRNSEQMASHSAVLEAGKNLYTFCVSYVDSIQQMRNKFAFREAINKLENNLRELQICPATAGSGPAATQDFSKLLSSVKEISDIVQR
> 10 µM

---

# TARGET OR TEST SYSTEM: EPHB1 (Homo sapiens)
# ASSAY NAME: SelectScreen kinase selectivity assay
# Assay type: biochemical
# CONDITION DESCRIPTION: ten-dose 0.25–128 μM
MEASURED QUANTITY: IC50

For the molecule shown here, CCc1nc(C(N)=O)c(Nc2ccc(N3CCC(Nc4ccccc4)CC3)c(OC)c2)nc1NC1CCOC(C(O)CO)C1 (stereo not shown) [FLIN-4] , give the reported IC50.
> 10 µM

---

pIC50: −log10 of the molar value.
MEASURED QUANTITY: pIC50

GET /values?readout=pIC50&system=ROS1 (Homo sapiens, UniProt P08922)&item= CCc1nc(C(N)=O)c(Nc2ccc(N3CCC(Nc4ccccc4)CC3)c(OC)c2)nc1NC1CCOC(C(O)CO)C1 (stereo not shown) [FLIN-4]
< 5.00

---

# TARGET OR TEST SYSTEM: NTRK2 (Homo sapiens, UniProt Q16620)
pIC50: −log10 of the molar value.
MEASURED QUANTITY: pIC50

Quick one: pIC50 of CCc1nc(C(N)=O)c(Nc2ccc(N3CCC(Nc4ccccc4)CC3)c(OC)c2)nc1NC1CCOC(C(O)CO)C1 (stereo not shown) ?
< 5.00

---

pIC50: −log10 of the molar value.
MEASURED QUANTITY: pIC50

Fill in the recorded pIC50 for this molecule, with AXL (Homo sapiens, UniProt P30530) as test system: CCc1nc(C(N)=O)c(Nc2ccc(N3CCC(Nc4ccccc4)CC3)c(OC)c2)nc1NC1CCOC(C(O)CO)C1 (stereo not shown)
< 5.00

---

# TARGET OR TEST SYSTEM: UniProtKB P09769
# ASSAY NAME: SelectScreen kinase selectivity assay
# Type: biochemical
# CONDITION DESCRIPTION: ten-dose 0.25–128 μM
MEASURED QUANTITY: IC50

Reported IC50 for CCc1nc(C(N)=O)c(Nc2ccc(N3CCC(Nc4ccccc4)CC3)c(OC)c2)nc1NC1CCOC(C(O)CO)C1 (stereo not shown) : what is it?
> 10 µM

---

# TARGET OR TEST SYSTEM: IGF1R (Homo sapiens, UniProt P08069)
# Sequence (P08069 31-1367): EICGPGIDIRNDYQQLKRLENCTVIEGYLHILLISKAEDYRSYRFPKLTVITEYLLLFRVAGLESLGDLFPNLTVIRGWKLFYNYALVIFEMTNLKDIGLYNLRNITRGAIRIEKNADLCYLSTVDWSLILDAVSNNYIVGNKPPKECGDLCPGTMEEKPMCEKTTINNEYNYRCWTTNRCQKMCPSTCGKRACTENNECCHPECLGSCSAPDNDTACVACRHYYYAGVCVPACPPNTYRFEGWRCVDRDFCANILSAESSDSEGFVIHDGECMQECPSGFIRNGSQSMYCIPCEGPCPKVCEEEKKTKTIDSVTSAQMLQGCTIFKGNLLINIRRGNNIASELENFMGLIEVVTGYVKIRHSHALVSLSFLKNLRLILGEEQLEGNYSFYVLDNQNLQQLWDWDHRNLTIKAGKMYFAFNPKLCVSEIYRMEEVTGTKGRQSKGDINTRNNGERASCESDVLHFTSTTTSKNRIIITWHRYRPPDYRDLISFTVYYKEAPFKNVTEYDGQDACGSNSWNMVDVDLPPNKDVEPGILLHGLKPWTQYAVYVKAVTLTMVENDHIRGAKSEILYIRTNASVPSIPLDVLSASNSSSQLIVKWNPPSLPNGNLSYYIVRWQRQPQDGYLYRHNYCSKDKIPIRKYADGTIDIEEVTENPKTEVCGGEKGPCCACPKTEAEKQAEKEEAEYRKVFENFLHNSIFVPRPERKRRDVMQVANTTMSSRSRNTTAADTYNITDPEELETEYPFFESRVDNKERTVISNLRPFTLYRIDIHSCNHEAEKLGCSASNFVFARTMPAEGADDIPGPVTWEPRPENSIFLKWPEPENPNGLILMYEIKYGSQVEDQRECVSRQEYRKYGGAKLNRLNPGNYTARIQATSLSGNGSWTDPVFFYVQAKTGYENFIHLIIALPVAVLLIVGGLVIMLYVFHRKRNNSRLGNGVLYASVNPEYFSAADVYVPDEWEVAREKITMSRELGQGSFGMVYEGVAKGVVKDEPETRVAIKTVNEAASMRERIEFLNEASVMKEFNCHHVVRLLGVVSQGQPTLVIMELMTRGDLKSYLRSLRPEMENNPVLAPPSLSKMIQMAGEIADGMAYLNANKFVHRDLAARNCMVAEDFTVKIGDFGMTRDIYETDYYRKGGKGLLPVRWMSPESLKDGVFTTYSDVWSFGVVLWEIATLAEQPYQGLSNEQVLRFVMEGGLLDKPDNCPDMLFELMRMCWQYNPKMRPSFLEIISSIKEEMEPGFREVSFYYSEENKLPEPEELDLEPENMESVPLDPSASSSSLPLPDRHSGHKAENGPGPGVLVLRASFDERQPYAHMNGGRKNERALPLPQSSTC
MEASURED QUANTITY: IC50

Given CCc1nc(C(N)=O)c(Nc2ccc(N3CCC(Nc4ccccc4)CC3)c(OC)c2)nc1NC1CCOC(C(O)CO)C1 (stereo not shown) , state its recorded IC50.
> 10 µM

---

pIC50: −log10 of the molar value.
MEASURED QUANTITY: pIC50

Which measured pIC50 belongs to CCc1nc(C(N)=O)c(Nc2ccc(N3CCC(Nc4ccccc4)CC3)c(OC)c2)nc1NC1CCOC(C(O)CO)C1 (stereo not shown) , tested on PTK2 (Homo sapiens, UniProt Q05397)?
< 5.00

---

# TARGET OR TEST SYSTEM: KIT (Homo sapiens, UniProt P10721)
# Sequence (P10721 26-976): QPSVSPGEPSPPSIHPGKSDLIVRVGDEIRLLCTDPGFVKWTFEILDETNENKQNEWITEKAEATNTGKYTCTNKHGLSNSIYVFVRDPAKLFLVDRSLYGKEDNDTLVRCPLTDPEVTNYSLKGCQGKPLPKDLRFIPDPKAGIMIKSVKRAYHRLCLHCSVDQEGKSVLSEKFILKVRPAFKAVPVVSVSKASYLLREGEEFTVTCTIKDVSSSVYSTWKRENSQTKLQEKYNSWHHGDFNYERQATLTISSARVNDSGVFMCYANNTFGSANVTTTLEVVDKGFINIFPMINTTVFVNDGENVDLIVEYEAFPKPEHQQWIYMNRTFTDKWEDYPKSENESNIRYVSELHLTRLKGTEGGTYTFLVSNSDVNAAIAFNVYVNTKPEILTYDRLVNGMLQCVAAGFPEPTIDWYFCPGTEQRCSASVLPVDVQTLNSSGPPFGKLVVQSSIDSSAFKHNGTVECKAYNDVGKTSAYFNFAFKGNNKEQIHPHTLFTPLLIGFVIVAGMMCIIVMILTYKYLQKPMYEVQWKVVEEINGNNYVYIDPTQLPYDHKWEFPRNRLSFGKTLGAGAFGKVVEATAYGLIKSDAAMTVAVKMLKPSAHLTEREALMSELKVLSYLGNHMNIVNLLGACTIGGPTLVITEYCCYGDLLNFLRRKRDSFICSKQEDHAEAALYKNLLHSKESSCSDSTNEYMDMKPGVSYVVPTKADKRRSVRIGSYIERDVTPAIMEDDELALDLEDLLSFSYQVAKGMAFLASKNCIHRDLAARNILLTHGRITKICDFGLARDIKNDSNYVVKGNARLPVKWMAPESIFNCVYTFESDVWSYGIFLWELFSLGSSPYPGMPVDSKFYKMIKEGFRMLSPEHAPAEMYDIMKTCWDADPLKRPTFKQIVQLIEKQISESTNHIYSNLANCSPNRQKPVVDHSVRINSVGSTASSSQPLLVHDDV
# ASSAY NAME: SelectScreen kinase selectivity assay
# Type: biochemical
# CONDITION DESCRIPTION: ten-dose 0.25–128 μM
MEASURED QUANTITY: IC50

Which IC50 reading was recorded for the compound CCc1nc(C(N)=O)c(Nc2ccc(N3CCC(Nc4ccccc4)CC3)c(OC)c2)nc1NC1CCOC(C(O)CO)C1 (stereo not shown) ?
> 10 µM

---

# TARGET OR TEST SYSTEM: ZAP70 (Homo sapiens)
# Sequence (P43403 whole entry): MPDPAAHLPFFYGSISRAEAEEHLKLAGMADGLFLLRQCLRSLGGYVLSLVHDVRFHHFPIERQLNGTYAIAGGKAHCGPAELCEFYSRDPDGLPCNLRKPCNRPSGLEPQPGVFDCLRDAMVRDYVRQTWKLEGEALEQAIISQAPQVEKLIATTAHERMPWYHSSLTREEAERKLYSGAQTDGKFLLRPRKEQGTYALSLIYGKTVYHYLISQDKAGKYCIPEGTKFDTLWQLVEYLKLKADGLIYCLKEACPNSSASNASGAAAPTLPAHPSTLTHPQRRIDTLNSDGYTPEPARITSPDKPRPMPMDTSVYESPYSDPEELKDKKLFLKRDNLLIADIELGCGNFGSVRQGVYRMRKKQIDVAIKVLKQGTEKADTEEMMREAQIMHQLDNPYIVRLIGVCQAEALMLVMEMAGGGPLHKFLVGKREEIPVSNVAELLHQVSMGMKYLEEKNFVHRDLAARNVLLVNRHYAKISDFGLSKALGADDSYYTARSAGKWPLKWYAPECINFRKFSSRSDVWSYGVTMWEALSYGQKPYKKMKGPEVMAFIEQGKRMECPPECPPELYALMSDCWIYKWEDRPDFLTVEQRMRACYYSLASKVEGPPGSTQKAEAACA
# ASSAY NAME: SelectScreen kinase selectivity assay
# Assay type: biochemical
# CONDITION DESCRIPTION: ten-dose 0.25–128 μM
MEASURED QUANTITY: IC50

Checklist item: IC50 tested on ZAP70 (Homo sapiens), entry CCc1nc(C(N)=O)c(Nc2ccc(N3CCC(Nc4ccccc4)CC3)c(OC)c2)nc1NC1CCOC(C(O)CO)C1 (stereo not shown) , value?
> 10 µM

---

MEASURED QUANTITY: IC50

# get_value(readout= IC50, system= EPHA8 (Homo sapiens, UniProt P29322)) for CCc1nc(C(N)=O)c(Nc2ccc(N3CCC(Nc4ccccc4)CC3)c(OC)c2)nc1NC1CCOC(C(O)CO)C1 (stereo not shown)
> 10 µM

---

# TARGET OR TEST SYSTEM: JAK3 (Homo sapiens, UniProt P52333)
# Sequence (P52333 1-1124): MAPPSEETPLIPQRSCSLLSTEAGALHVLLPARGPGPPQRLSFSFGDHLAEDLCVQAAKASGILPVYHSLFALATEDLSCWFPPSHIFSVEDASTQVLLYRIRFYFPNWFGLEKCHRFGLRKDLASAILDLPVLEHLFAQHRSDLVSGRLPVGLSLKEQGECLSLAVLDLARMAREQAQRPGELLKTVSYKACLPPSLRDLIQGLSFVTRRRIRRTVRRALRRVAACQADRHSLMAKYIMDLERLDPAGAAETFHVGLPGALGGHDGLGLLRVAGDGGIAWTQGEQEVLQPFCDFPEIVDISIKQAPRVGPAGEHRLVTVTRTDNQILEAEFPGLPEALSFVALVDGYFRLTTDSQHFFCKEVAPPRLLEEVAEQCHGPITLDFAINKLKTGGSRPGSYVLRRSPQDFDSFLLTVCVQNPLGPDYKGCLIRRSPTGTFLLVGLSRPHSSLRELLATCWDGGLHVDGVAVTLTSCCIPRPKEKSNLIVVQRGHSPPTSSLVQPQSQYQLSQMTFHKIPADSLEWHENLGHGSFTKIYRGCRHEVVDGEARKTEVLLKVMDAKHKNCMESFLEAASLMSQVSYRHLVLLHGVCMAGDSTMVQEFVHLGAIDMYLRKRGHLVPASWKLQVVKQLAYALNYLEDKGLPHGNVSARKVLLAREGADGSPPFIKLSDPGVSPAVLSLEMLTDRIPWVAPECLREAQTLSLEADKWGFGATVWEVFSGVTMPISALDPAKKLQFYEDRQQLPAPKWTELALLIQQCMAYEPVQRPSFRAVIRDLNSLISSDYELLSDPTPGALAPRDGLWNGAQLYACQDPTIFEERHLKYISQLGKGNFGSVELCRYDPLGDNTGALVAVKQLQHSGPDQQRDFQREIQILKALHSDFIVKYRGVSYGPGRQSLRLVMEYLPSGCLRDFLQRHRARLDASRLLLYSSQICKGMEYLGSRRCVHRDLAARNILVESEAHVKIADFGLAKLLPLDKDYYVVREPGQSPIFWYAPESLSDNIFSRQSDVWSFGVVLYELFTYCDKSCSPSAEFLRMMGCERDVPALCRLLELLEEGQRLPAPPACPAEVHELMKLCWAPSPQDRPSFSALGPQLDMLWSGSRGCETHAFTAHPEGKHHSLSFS
MEASURED QUANTITY: IC50

Can you share its IC50? I mean this compound: CCc1nc(C(N)=O)c(Nc2ccc(N3CCC(Nc4ccccc4)CC3)c(OC)c2)nc1NC1CCOC(C(O)CO)C1 (stereo not shown) [FLIN-4]
> 10 µM

Provenance of the data: paper PMC11830721
